biological target: EF2K (Homo sapiens); assay: Kinase profiling EF2K; format: biochemical; details: 100 micromolar inhibitor concentration; 100 is no change
measured quantity: residual kinase activity, EF2K

entry smiles | result value
COc1ccc2nc(NC(=O)c3ccccc3)sc2c1 | 108
CC(=O)Nc1nc2cc(C)ccc2s1 | 110
COC(=O)c1cccc(C(=O)Nc2nc3ccc(F)cc3s2)c1 | 94
O=C(Nc1nc2ccc(O)cc2s1)c1ccccc1 | 107
COC(=O)c1cccc(C(=O)Nc2nc3cc(OC)ccc3s2)c1 | 91
CC(=O)Nc1nc2ccccc2s1 | 89
O=C(Nc1nc2ccc(C(F)(F)F)cc2s1)c1ccccc1 | 99
O=C(Nc1nc2ccc(O)cc2s1)c1ccccn1 | 69
O=C(Nc1nc2ccc(O)cc2s1)c1cccnc1 | 67
COc1ccc2sc(NC(=O)c3cccc(C(N)=O)c3)nc2c1 | 127
O=C(Nc1nc2cc(O)ccc2s1)c1cccnc1 | 106
O=C(Nc1nc2cc(O)ccc2s1)c1ccncc1 | 79
COc1ccc2sc(NC(=O)c3ccccc3)nc2c1 | 115
O=C(Nc1nc2cc(O)ccc2s1)c1ccccn1 | 94
CC(=O)Nc1nc2ccc(F)cc2s1 | 96
O=C(Nc1nc2ccc(O)cc2s1)c1ccncc1 | 79
O=C(Nc1nc2cc(O)ccc2s1)c1ccccc1 | 92
N#Cc1ccc2nc(NC(=O)c3ccccc3)sc2c1 | 100
O=C(Nc1nc2ccc(F)cc2s1)c1ccccc1 | 134
